- tgt: NCX1.3 (Homo sapiens)
- assay_summary: excised inside-out patch-clamp, recombinant forward-mode
- Assay type: biochemical
- conditions: read-out: IC50, FM late current NCX1.3; late current, 1 min postactivation
pIC50: −log10 of the molar value.
measured_attribute: pIC50

[
  {
    "smiles_representation": "N=C(N)SCCc1ccc(OCc2ccc([N+](=O)[O-])cc2)cc1",
    "reading": 5.67
  }
]

---

- tgt: NCX1.1 (Homo sapiens, UniProt P32418)
- assay_summary: excised inside-out patch-clamp, recombinant forward-mode
- conditions: read-out: IC50, inhibition of total FM NCX1.1 activity; cardiac splice variant; total current (AUC); tsA201 cells
pIC50: −log10 of the molar value.

[
  {
    "smiles_representation": "N=C(N)SCCc1ccc(OCc2ccc([N+](=O)[O-])cc2)cc1",
    "pIC50": 4.37
  }
]

Values from paper PMC2889768
